This collection of values is drawn from patent US6673801B1.

The following compounds are shown together with reported solubility at 20 min values.
Test: Kinetic solubility assay (turbidometric, phosphate buffer)
Settings: pH 7, aqueous buffer, kinetic from dmso stock

INSERT INTO results (compound_structure_string, reported_measurement) VALUES
  ('CC(C)(O)CC[C@H](C[C@H](O)[C@H](Cc1cccc2ccccc12)NC(=O)c1cnc2ccccc2n1)C(N)=O', '> 250 µg/mL');

Fill in the blank: the reported solubility at 20 min of `CC(C)(O)CC[C@H](C[C@H](O)[C@H](Cc1ccccc1)NC(=O)c1cnc2ccccc2n1)C(=O)NO` is ____. > 250 µg/mL

Now give it for `CC(C)(O)CC[C@H](C[C@H](O)[C@H](Cc1ccccc1Cl)NC(=O)c1cnc2ccccc2n1)C(N)=O` too. > 250 µg/mL

Now give it for `CC(C)(O)CC[C@H](C[C@H](O)[C@H](Cc1ccccc1F)NC(=O)c1cnc2ccccc2n1)C(N)=O` too. > 250 µg/mL

Now give it for `CC(C)(O)CC[C@H](C[C@H](O)[C@H](Cc1cccs1)NC(=O)c1cnc2ccccc2n1)C(N)=O` too. > 250 µg/mL

Now give it for `CC(C)(O)CC[C@H](C[C@H](O)[C@H](Cc1ccc(F)c(F)c1)NC(=O)c1cnc2ccccc2n1)C(N)=O` too. > 250 µg/mL

Now give it for `CC(C)(O)CC[C@H](C[C@H](O)[C@H](Cc1ccccc1)NC(=O)c1cnc2c(F)c(F)c(F)cc2c1)C(N)=O` too. > 250 µg/mL

====

The following compounds are shown together with reported melting point values.

INSERT INTO measurements (compound_structure_string, reported_measurement) VALUES
  ('CC(C)(O)CC[C@H](C[C@H](O)[C@H](Cc1cccc2ccccc12)NC(=O)c1cnc2ccccc2n1)C(N)=O', '155 to 158 °C'),
  ('CC(C)(O)CC[C@H](C[C@H](O)[C@H](Cc1ccccc1)NC(=O)c1cnc2ccccc2n1)C(=O)NO', '108 to 110 °C'),
  ('CC(C)(O)CC[C@H](C[C@H](O)[C@H](Cc1ccc(F)c(F)c1)NC(=O)c1cnc2ccccc2n1)C(=O)NO', '150 to 153 °C'),
  ('CC(C)(O)CC[C@H](C[C@H](O)[C@H](Cc1ccccc1F)NC(=O)c1cnc2ccccc2n1)C(N)=O', '147 to 148 °C'),
  ('CC(C)(O)CC[C@H](C[C@H](O)[C@H](Cc1ccccc1F)NC(=O)c1cnc2ccccc2n1)C(=O)NO', '130 to 131 °C'),
  ('CC(C)(O)CC[C@H](C[C@H](O)[C@H](Cc1ccc(F)c(F)c1)NC(=O)c1cnc2ccccc2n1)C(N)=O', '110 to 120 °C');

Fill in the blank: the reported melting point of `CC(C)(O)CC[C@H](C[C@H](O)[C@H](Cc1ccccc1)NC(=O)c1cnc2c(F)c(F)c(F)cc2c1)C(N)=O` is ____. 185 to 188 °C

====

Assay: Kinetic solubility assay (turbidometric, phosphate buffer)
Conditions: pH 7, aqueous buffer, kinetic from dmso stock
The following compounds are shown together with reported solubility at 20 min values.

INSERT INTO results (compound, reported_measurement) VALUES
  ('CC(C)(O)CC[C@H](C[C@H](O)[C@H](Cc1ccc(F)c(F)c1)NC(=O)c1cnc2ccccc2n1)C(=O)NO', '> 200 µg/mL'),
  ('CNC(=O)[C@H](CC(C)C)C[C@H](O)[C@H](Cc1ccc2ccccc2c1)NC(=O)c1cnc2ccccc2n1 [Example 127, reference compound]', '< 5 µg/mL');

In the following, a different compound is considered.
Fill in the blank: the reported solubility at 20 min of `CC(C)(O)CC[C@H](C[C@H](O)[C@H](Cc1ccccc1F)NC(=O)c1cnc2ccccc2n1)C(=O)NO` is ____. > 250 µg/mL
